Please provide measured ratio to parent for the entries that follow.
B1: H2-Kb / Ed39 (parent complex)
chain 1: GEQVEQRPPHLSVREGDSAVIICTYTDPNSYYFFWYKQEPGAGLQLLMKVFSSTEINEGQGFTVLLNKKDKQLSLNLTAAHPGDSAVYFCATMSNYNVLYFGSGTKLTVEP
chain 2: GALVYQYPRRTICKSGTSMRMECQAVGFQATSVAWYRQSPQKTFELIALSTVNSAIKYEQNFTQEKFPISHPNLSFSSMTVLNAYLEDRGLYLCGARDGSYEQYFGPGTRLTVL
chain 3: not shown
chain 4: IQKTPQIQVYSRHPPENGKPNILNCYVTQFHPPHIEIQMLKNGKKIPKVEMSDMSFSKDWSFYILAHTEFTPTETDTYACRVKHDSMAEPKTVYWDRDM
chain 5: SIINFEKL

- Variants of: B1
- Protocol details: % of reporter cells activated (NFAT-GFP), raw; also: test concentration or dose not given here
Returns: the value as a bare number; no unit string appended.

Prompt line: GET /values?readout=ratio to parent&item= chain 5 I3W
Response line: 0.472

Prompt line: And chain 5 N4R ?
Response line: 0.22

Prompt line: And chain 5 L8M ?
Response line: 0.762

Prompt line: And chain 5 F5H ?
Response line: 0.791

Prompt line: And chain 5 N4V ?
Response line: 0.00191

Prompt line: And chain 5 K7Q ?
Response line: 0.865

Prompt line: And chain 5 F5P ?
Response line: 0.281

Prompt line: And chain 5 L8D ?
Response line: 0.425

Prompt line: And chain 5 K7I ?
Response line: 0.0214

Prompt line: And chain 5 E6F ?
Response line: 0.00457
